Cited source for all entries: ChEMBL document CHEMBL5370527

experiment: Cytotoxicity against human THP-1 cells assessed as reduction in cell viability incubated for 72 hrs by alamarblue staining based analysis; assay type: toxicity
ENDPOINT_LABEL: CC50 at 72 h (µM)
Answer format: numeric, µM implied, no suffix.

O=C(c1cccc(O)c1)N1CCN(c2cnccn2)CC1 2200

Please look at this molecule and report its CC50 at 72 h: O=C(c1ccc(O)cc1)N1CCN(c2cnccn2)CC1 1070

Please look at this molecule and report its CC50 at 72 h: COc1ccc(C(=O)N2CCN(c3cnccn3)CC2)cc1 1900

Please look at this molecule and report its CC50 at 72 h: O=C(c1ccc(O)cc1O)N1CCN(c2cnccn2)CC1 443

Please look at this molecule and report its CC50 at 72 h: O=C(c1ccc(O)c(O)c1)N1CCN(c2cnccn2)CC1 1420

Please look at this molecule and report its CC50 at 72 h: Nc1ccc(C(=O)N2CCN(c3cnccn3)CC2)cn1 2670

Please look at this molecule and report its CC50 at 72 h: CC(C)(C)OC(=O)N[C@@H](Cc1ccc(O)cc1)C(=O)N1CCN(c2cnccn2)CC1 1010

Please look at this molecule and report its CC50 at 72 h: O=C(c1ccc(Cl)nc1)N1CCN(c2cnccn2)CC1 349

Please look at this molecule and report its CC50 at 72 h: C[C@@H]1[C@H](O)[C@@H](C)/C=C/C=C/C=C/C=C/C=C/C=C/C=C/[C@H](O[C@@H]2O[C@H](C)[C@@H](O)[C@H](N)[C@@H]2O)C[C@@H]2O[C@](O)(C[C@@H](O)C[C@@H](O)[C@H](O)CC[C@@H](O)C[C@@H](O)CC(=O)O[C@H]1C)C[C@H](O)[C@H]2C(=O)O 364

Please look at this molecule and report its CC50 at 72 h: O=C(c1ccc2cc(O)ccc2c1)N1CCN(c2cnccn2)CC1 796

Please look at this molecule and report its CC50 at 72 h: O=C(c1cc(Cl)ccc1O)N1CCN(c2cnccn2)CC1 1600

Please look at this molecule and report its CC50 at 72 h: O=C(c1ccc(OC(F)(F)F)cc1)N1CCN(c2cnccn2)CC1 865

Please look at this molecule and report its CC50 at 72 h: O=S(=O)(c1ccc(O)cc1)N1CCN(c2cnccn2)CC1 2510

====

Listed next: entries and their corresponding IC50.
test system: Trypanosoma cruzi; assay: Antitrypanosomal activity against Trypanosoma cruzi Tulahuen infected in mouse L929 cells assessed as parasite growth inhibition incubated for 96 hrs; assay type: functional, organism-based; details: L929, 96 h

O=C(c1cccc(O)c1)N1CCN(c2cnccn2)CC1 > 175 µM
O=C(c1ccc(-n2cnnn2)cc1)N1CCN(c2cnccn2)CC1 > 175 µM
O=C(c1cccc(Cl)c1)N1CCN(c2cnccn2)CC1 > 175 µM
O=C(c1ccc(O)c(Cl)c1)N1CCN(c2cnccn2)CC1 > 175 µM
O=C(c1ccc(C(F)(F)F)nc1)N1CCN(c2cnccn2)CC1 > 175 µM

Please look at this compound and report its IC50: O=C(c1ccc(C(F)(F)F)cc1)N1CCN(c2cnccn2)CC1 > 175 µM

Please look at this compound and report its IC50: COc1ccc(Cl)cc1C(=O)N1CCN(c2cnccn2)CC1 > 175 µM

====

assay: Cytotoxicity against human THP-1 cells assessed as reduction in cell viability incubated for 72 hrs by alamarblue staining based analysis; assay type: toxicity
Strictly below 1 mM in CC50 at 72 h: fulfilled. Otherwise: not fulfilled.

# example entries with known answers
O=C(c1ccc(C(F)(F)F)cc1)N1CCN(c2cnccn2)CC1 fulfilled
O=C(c1ccccc1)N1CCN(c2cnccn2)CC1 fulfilled
N[C@@H](Cc1ccc(O)cc1)C(=O)N1CCN(c2cnccn2)CC1 not fulfilled
O=C(c1cccc(Cl)c1)N1CCN(c2cnccn2)CC1 fulfilled
O=C(c1ccc([N+](=O)[O-])cc1)N1CCN(c2cnccn2)CC1 not fulfilled
O=C(c1ccccn1)N1CCN(c2cnccn2)CC1 not fulfilled

API: query returns whether the compound falls strictly under 1 mM in CC50 at 72 h. Query: O=C(c1ccc(O)cn1)N1CCN(c2cnccn2)CC1 not fulfilled

API: query returns whether the compound falls strictly under 1 mM in CC50 at 72 h. Query: O=C(c1ccc(N2CCCC2)nc1)N1CCN(c2cnccn2)CC1 fulfilled

API: query returns whether the compound falls strictly under 1 mM in CC50 at 72 h. Query: O=C(c1ccc(O)c(Cl)c1)N1CCN(c2cnccn2)CC1 fulfilled

API: query returns whether the compound falls strictly under 1 mM in CC50 at 72 h. Query: COc1ccc(S(=O)(=O)N2CCN(c3cnccn3)CC2)cc1 not fulfilled

API: query returns whether the compound falls strictly under 1 mM in CC50 at 72 h. Query: O=C(c1ccc(NC2CCCC2)nc1)N1CCN(c2cnccn2)CC1 fulfilled

API: query returns whether the compound falls strictly under 1 mM in CC50 at 72 h. Query: O=C(c1ccc(F)cc1O)N1CCN(c2cnccn2)CC1 not fulfilled

API: query returns whether the compound falls strictly under 1 mM in CC50 at 72 h. Query: COc1ccc(C(=O)N2CCN(c3cnccn3)CC2)c(OC)c1 fulfilled

API: query returns whether the compound falls strictly under 1 mM in CC50 at 72 h. Query: O=C(c1ccc(C(F)(F)F)nc1)N1CCN(c2cnccn2)CC1 not fulfilled

API: query returns whether the compound falls strictly under 1 mM in CC50 at 72 h. Query: O=C(c1ccc(-n2cnnn2)cc1)N1CCN(c2cnccn2)CC1 not fulfilled

API: query returns whether the compound falls strictly under 1 mM in CC50 at 72 h. Query: O=C(c1ccc(O)nc1)N1CCN(c2cnccn2)CC1 not fulfilled

====

assay: Selectivity index, ratio of CC50 for cytotoxicity against human THP-1 cells assessed as reduction in cell viability to IC50 for antileishmanial activity against […] stage of Leishmania braziliensis MHOM/BR/75/M2904 infected in human THP-1 cells assessed as parasite growth inhibition; format: toxicity, cell-based; settings: read-out: Ratio CC50/IC50
Definition: the class of an entry is the range in interval 1 (below 40), interval 2 (40 to below 200), interval 3 (200 or more) that contains its selectivity ratio.

# example entries with known answers
COc1ccc(C(=O)N2CCN(c3cnccn3)CC2)cc1 interval 2
N[C@@H](Cc1ccc(O)cc1)C(=O)N1CCN(c2cnccn2)CC1 interval 1
O=C(c1ccccc1)N1CCN(c2cnccn2)CC1 interval 1
Nc1ccc(C(=O)N2CCN(c3cnccn3)CC2)cn1 interval 3

Returns: class label. Input: O=C(c1ccc2cc(O)ccc2c1)N1CCN(c2cnccn2)CC1 interval 3

Returns: class label. Input: O=C(c1cccc(O)c1)N1CCN(c2cnccn2)CC1 interval 2

Returns: class label. Input: O=C(c1ccc(F)cc1O)N1CCN(c2cnccn2)CC1 interval 2

Returns: class label. Input: O=C(c1ccc(O)cc1)N1CCN(c2cnccn2)CC1 interval 2

Returns: class label. Input: O=C(c1ccccc1O)N1CCN(c2cnccn2)CC1 interval 1

Returns: class label. Input: O=C(N1CCN(c2cnccn2)CC1)n1ccnc1 interval 3

Returns: class label. Input: O=C(c1ccc(C(F)(F)F)nc1)N1CCN(c2cnccn2)CC1 interval 3

Returns: class label. Input: O=C(c1ccc(OC(F)(F)F)cc1)N1CCN(c2cnccn2)CC1 interval 2

====

test: Cytotoxicity against human HepG2 cells assessed as reduction in cell viability incubated for 4 days by celltiter-glo assay; type: toxicity, cell-based; settings: time 4 day
ENDPOINT_LABEL: CC50 at 96 h

Please look at this compound and report its CC50 at 96 h: O=C(c1ccc(O)c(Cl)c1)N1CCN(c2cnccn2)CC1 > 100 µM

====

Listed next: entries and their corresponding selectivity ratio.
experiment: Selectivity index, ratio of CC50 for cytotoxicity against human THP-1 cells assessed as reduction in cell viability to IC50 for antileishmanial activity against […] stage of Leishmania braziliensis MHOM/BR/75/M2904 infected in human THP-1 cells assessed as parasite growth inhibition; format: toxicity, cell-based; conditions: read-out: Ratio CC50/IC50
// keep it numeric: no unit symbol after the value

Sample records with selectivity ratio:
CC(C)(C)OC(=O)N[C@@H](Cc1ccc(O)cc1)C(=O)N1CCN(c2cnccn2)CC1 108
O=C(c1ccc(O)c(Cl)c1)N1CCN(c2cnccn2)CC1 46
COc1ccc(Cl)cc1C(=O)N1CCN(c2cnccn2)CC1 130

Please look at this molecule and report its selectivity ratio: O=C(c1ccc([N+](=O)[O-])cc1)N1CCN(c2cnccn2)CC1 17

Please look at this molecule and report its selectivity ratio: O=C(c1ccc(C(F)(F)F)cc1)N1CCN(c2cnccn2)CC1 8

Please look at this molecule and report its selectivity ratio: O=C(c1ccc(O)c(O)c1)N1CCN(c2cnccn2)CC1 151

Please look at this molecule and report its selectivity ratio: O=C(c1ccc(O)cc1O)N1CCN(c2cnccn2)CC1 23

Please look at this molecule and report its selectivity ratio: O=C(c1cccc(Cl)c1)N1CCN(c2cnccn2)CC1 7

Please look at this molecule and report its selectivity ratio: O=C(c1ccc(Cl)nc1)N1CCN(c2cnccn2)CC1 35

Please look at this molecule and report its selectivity ratio: O=C(c1ccc(N2CCCC2)nc1)N1CCN(c2cnccn2)CC1 48
